Entries and their Population Membrane Permeable-Phenotype (%)
- Test system: Fibroblast
- Assay summary: Multiplex assay against human fibroblast
- Format: toxicity, cell-based
- Measurement setup: 48 h, 10 µM, compound concentration 10 uM, replicate 1
Parameter measured: Population Membrane Permeable-Phenotype (%)

Compound	Observed result
CN1CCC[C@@H]1CCO[C@](C)(c1ccccc1)c1ccc(Cl)cc1.O=C(O)/C=C/C(=O)O [CLEMASTINE FUMARATE]	8
CN(C)C(=O)N[C@H]1CC[C@H](CCN2CCN(c3cccc(Cl)c3Cl)CC2)CC1.Cl [CARIPRAZINE HYDROCHLORIDE]	10
CNCc1ccccc1-c1csc([C@H](C)Nc2nc(C)nc3cc(OC)c(OC)cc23)c1	43
COc1cc2nccc(Oc3ccc(NC(=O)Nc4cc(C)on4)c(Cl)c3)c2cc1OC.O	10
CC(C)(O)CNc1ncc(-c2ccnc(Nc3ccnc(Cl)c3)n2)c(CC2CC2)n1	12
Cc1csc2c(N[C@@H](C)CN3CCN(S(=O)(=O)c4ccc(Cl)c(Cl)c4)CC3)ncnc12	21
Cl.N#Cc1ccc2[nH]cc(CCCCN3CCN(c4ccc5oc(C(N)=O)cc5c4)CC3)c2c1 [VILAZODONE HYDROCHLORIDE]	51
C=CC(=O)Nc1ccc2ncnc(Nc3ccc(OCc4cccc(F)c4)c(Cl)c3)c2c1.Cc1ccc(S(=O)(=O)O)cc1	17

====

- System: HEK-293T
- Assay summary: Multiplex assay against HEK293T
- Assay type: toxicity, cell-based
- Measurement setup: human, 48 h, 10 µM, compound concentration 10 uM, replicate 1
Parameter measured: Total Cell Count

Compound	Assayed target	Observed result
CN1CCCC(n2nc(Cc3ccc(Cl)cc3)c3ccccc3c2=O)CC1.Cl (stereo not drawn) [AZELASTINE HYDROCHLORIDE]	HEK-293T	297
O=C1NCN(c2ccccc2)C12CCN(CCCOc1ccc(F)cc1)CC2 [SPIRAMIDE]	HEK-293T	227
CCn1c(=O)c(-c2ccc(Cl)cc2Cl)cc2cnc(Nc3ccc(N4CCNCC4)c(F)c3)nc21	HEK-293T	280

====

Entries and their Population Mitotic Cells (%)
- System: HEK-293T
- Assay summary: Multiplex assay against HEK293T
- Format: toxicity, cell-based
- Measurement setup: human, 24 h, 1 µM, compound concentration 1 uM, replicate 1
Parameter measured: Population Mitotic Cells (%)

Compound	Assayed target	Observed result
C=CC(=O)Nc1cc2c(Nc3ccc(F)c(Cl)c3)ncnc2cc1OCCCN1CCOCC1.Cl.Cl [CANERTINIB DIHYDROCHLORIDE]	HEK-293T	20
CN1CCC[C@@H]1CCO[C@](C)(c1ccccc1)c1ccc(Cl)cc1.O=C(O)/C=C/C(=O)O [CLEMASTINE FUMARATE]	HEK-293T	40
CC(C)NCC(O)COc1ccc(CCOCC2CC2)cc1.Cl (centres undefined) [BETAXOLOL HYDROCHLORIDE]	HEK-293T	54
CCN(CC)CCCCNc1ncc2cc(-c3cc(OC)cc(OC)c3)c(NC(=O)NC(C)(C)C)nc2n1 [PD-173074]	HEK-293T	68

====

- Test system: HEK-293T
- Assay summary: Multiplex assay against HEK293T
- Assay type: toxicity, cell-based
- Measurement setup: human, 24 h, 1 µM, compound concentration 1 uM, replicate 2
Parameter measured: Total Cell Count

Compound	Parameter measured	Observed result
Cc1c(-c2ccc(O)cc2)n(Cc2ccc(OCCN3CCCCCC3)cc2)c2ccc(O)cc12	Total Cell Count	207
COc1cccc([C@@H](C)NCCCc2ccccc2Cl)c1.Cl [TECALCET HYDROCHLORIDE]	Total Cell Count	217
NC(=O)Nc1cc(-c2cccc(F)c2)sc1C(=O)N[C@H]1CCCNC1	Total Cell Count	1019
C=CC(=O)Nc1ccc2ncnc(Nc3ccc(OCc4cccc(F)c4)c(Cl)c3)c2c1.Cc1ccc(S(=O)(=O)O)cc1	Total Cell Count	279
Cc1cc(C)cc(-c2cnc3cc(Cl)c(-c4cccc(O)c4)cc3c2OCCCN)c1	Total Cell Count	296
Cc1[nH]c(/C=C2\C(=O)Nc3ccc(S(=O)(=O)N(C)c4cccc(Cl)c4)cc32)c(C)c1C(=O)N1CCN(C)CC1	Total Cell Count	295
CN1CCN(CCOc2cc(OC3CCOCC3)c3c(Nc4c(Cl)ccc5c4OCO5)ncnc3c2)CC1	Total Cell Count	217
CN1CCC[C@@H]1CCO[C@](C)(c1ccccc1)c1ccc(Cl)cc1.O=C(O)/C=C/C(=O)O [CLEMASTINE FUMARATE]	Total Cell Count	273
